Recorded measurements of RNAcompete 7-mer binding Z-score, one per entry
System: RBM10 RRM1-ZnF-RRM2 (GST-tagged construct);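 note: 20 pmol protein with 1.5 nmol RNA pool for 30 min at 4°C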
Experiment summary: RNAcompete 7-mer binding Z-score; higher = stronger binding preference
Whole data set: some 16,000 sequences, median “Z-score” near -0.37, cut for the highest 2% near 3.1. What follows is part of a selection rich in the highest values, with near analogues and random picks from the rest.
Form field (numeric): enter value without unit.

[
  {
    "Sequence data": "AGUGGGC",
    "System": "RBM10 RRM1-ZnF-RRM2 (GST-tagged construct)",
    "Experimental endpoint": "RNAcompete 7-mer binding Z-score",
    "Meas value": 2.96
  },
  {
    "Sequence data": "GUUCUAC",
    "System": "RBM10 RRM1-ZnF-RRM2 (GST-tagged construct)",
    "Experimental endpoint": "RNAcompete 7-mer binding Z-score",
    "Meas value": -0.759
  },
  {
    "Sequence data": "GAGUAGA",
    "System": "RBM10 RRM1-ZnF-RRM2 (GST-tagged construct)",
    "Experimental endpoint": "RNAcompete 7-mer binding Z-score",
    "Meas value": 1.4
  },
  {
    "Sequence data": "UUACAUU",
    "System": "RBM10 RRM1-ZnF-RRM2 (GST-tagged construct)",
    "Experimental endpoint": "RNAcompete 7-mer binding Z-score",
    "Meas value": -0.686
  }
]

Here's the next entry for you.
So what does the record say about RNAcompete 7-mer binding Z-score for `GUUCUCU` ?
-0.788

* * *

System: RBM10 RRM1-ZnF-RRM2 (GST-tagged construct);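 note: 20 pmol protein with 1.5 nmol RNA pool for 30 min at 4°C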
Experiment summary: RNAcompete 7-mer binding Z-score; higher = stronger binding preference
Over roughly 16,000 sequences, “Z-score” has its median near -0.37; the highest 2% begin near 3.1. The sample holds the highest values, similar sequences and a random draw of the others, so the mix is not that of the screen.
Reported values of RNAcompete 7-mer binding Z-score for individual entries
Form: value (number only, do not type unit).

[
  {
    "Sequence data": "GUCAGGG",
    "Experimental endpoint": "RNAcompete 7-mer binding Z-score",
    "Meas value": 1.81
  },
  {
    "Sequence data": "ACGACGA",
    "Experimental endpoint": "RNAcompete 7-mer binding Z-score",
    "Meas value": -0.384
  },
  {
    "Sequence data": "CGAUUUA",
    "Experimental endpoint": "RNAcompete 7-mer binding Z-score",
    "Meas value": -0.704
  },
  {
    "Sequence data": "AAUCGCU",
    "Experimental endpoint": "RNAcompete 7-mer binding Z-score",
    "Meas value": -0.825
  },
  {
    "Sequence data": "GCUUCCG",
    "Experimental endpoint": "RNAcompete 7-mer binding Z-score",
    "Meas value": -0.799
  },
  {
    "Sequence data": "UACCUGC",
    "Experimental endpoint": "RNAcompete 7-mer binding Z-score",
    "Meas value": -0.887
  }
]

Form entry - test system: RBM10 RRM1-ZnF-RRM2 (GST-tagged construct); read-out: RNAcompete 7-mer binding Z-score; sequence: `UAUUGCG`;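 note: 20 pmol protein with 1.5 nmol RNA pool for 30 min at 4°C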
-0.278

RNAcompete 7-mer binding Z-score of `UUUGUCC` on RBM10 RRM1-ZnF-RRM2 (GST-tagged construct)?
-0.85

Can you look up RNAcompete 7-mer binding Z-score on RBM10 RRM1-ZnF-RRM2 (GST-tagged construct) for `UUUGAGU` ?
-0.213

Record `AGAGGUG` : what is its RNAcompete 7-mer binding Z-score with RBM10 RRM1-ZnF-RRM2 (GST-tagged construct)?
2.05

API: value(readout= RNAcompete 7-mer binding Z-score, system= RBM10 RRM1-ZnF-RRM2 (GST-tagged construct), query= `UGAGGUA` );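 note: 20 pmol protein with 1.5 nmol RNA pool for 30 min at 4°C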
1.87
